Source: the supplement of paper PMC10307832

Consider the following molecules and their measured relative viability readings.
# Test system: NCI-H2228
# Experiment: relative viability (nuclei count vs DMSO), 5 days (fraction); higher = more cells survive
# Condition label: first compound 0.01581 µM
The answer should be a number; do not append a unit.

Worked examples, 5 molecules total:
CC1(C)CCC(c2ccc(Cl)cc2)=C(CN2CCN(c3ccc(C(=O)NS(=O)(=O)c4ccc(N[C@H](CCN5CCOCC5)CSc5ccccc5)c(S(=O)(=O)C(F)(F)F)c4)cc3)CC2)C1 [Navitoclax] + Cc1cc(Nc2cc(N3CCN(C)CC3)nc(Sc3ccc(NC(=O)C4CC4)cc3)n2)n[nH]1 [Tozasertib] (partner 0.1 µM) = 0.296
CC1(C)CCC(c2ccc(Cl)cc2)=C(CN2CCN(c3ccc(C(=O)NS(=O)(=O)c4ccc(N[C@H](CCN5CCOCC5)CSc5ccccc5)c(S(=O)(=O)C(F)(F)F)c4)cc3)CC2)C1 [Navitoclax] + C[C@]1(O)C[C@@H](c2nc(-c3ccc4ccc(-c5ccccc5)nc4c3)c3c(N)nccn32)C1 [Linsitinib] (partner 1 µM) = 0.81
CC1(C)CCC(c2ccc(Cl)cc2)=C(CN2CCN(c3ccc(C(=O)NS(=O)(=O)c4ccc(N[C@H](CCN5CCOCC5)CSc5ccccc5)c(S(=O)(=O)C(F)(F)F)c4)cc3)CC2)C1 [Navitoclax] + CS(=O)(=O)N1CCN(Cc2cc3nc(-c4cccc5[nH]ncc45)nc(N4CCOCC4)c3s2)CC1 [Pictilisib] (partner 1 µM) = 0.526
CC1(C)CCC(c2ccc(Cl)cc2)=C(CN2CCN(c3ccc(C(=O)NS(=O)(=O)c4ccc(N[C@H](CCN5CCOCC5)CSc5ccccc5)c(S(=O)(=O)C(F)(F)F)c4)cc3)CC2)C1 [Navitoclax] + Cc1nc(NC(=O)N2CCC[C@H]2C(N)=O)sc1-c1ccnc(C(C)(C)C(F)(F)F)c1 [Alpelisib] (partner 2 µM) = 0.725
CC1(C)CCC(c2ccc(Cl)cc2)=C(CN2CCN(c3ccc(C(=O)NS(=O)(=O)c4ccc(N[C@H](CCN5CCOCC5)CSc5ccccc5)c(S(=O)(=O)C(F)(F)F)c4)cc3)CC2)C1 [Navitoclax] + O=C(c1cc(Cc2n[nH]c(=O)c3ccccc23)ccc1F)N1CCN(C(=O)C2CC2)CC1 [Olaparib] (partner 8 µM) = 0.754

Here's the next entry for you.
Reported relative viability ( CC1(C)CCC(c2ccc(Cl)cc2)=C(CN2CCN(c3ccc(C(=O)NS(=O)(=O)c4ccc(N[C@H](CCN5CCOCC5)CSc5ccccc5)c(S(=O)(=O)C(F)(F)F)c4)cc3)CC2)C1 [Navitoclax] + Nc1nc2[nH]cc(CCc3ccc(C(=O)N[C@@H](CCC(=O)O)C(=O)O)cc3)c2c(=O)[nH]1 [Pemetrexed] (partner 0.2 µM) ) = 0.306
